These data points were gathered from patent US11149037B2.

target: FAAH (Mus musculus (Mouse), UniProt O08914); test: In vitro competitive activity-based protein profiling, mouse proteomes (brain membrane fraction or cell lysates); format: biochemical; conditions: mouse proteome, read-out: FAAH % inh. 1 μM (mouse)
Sequence (O08914 whole entry): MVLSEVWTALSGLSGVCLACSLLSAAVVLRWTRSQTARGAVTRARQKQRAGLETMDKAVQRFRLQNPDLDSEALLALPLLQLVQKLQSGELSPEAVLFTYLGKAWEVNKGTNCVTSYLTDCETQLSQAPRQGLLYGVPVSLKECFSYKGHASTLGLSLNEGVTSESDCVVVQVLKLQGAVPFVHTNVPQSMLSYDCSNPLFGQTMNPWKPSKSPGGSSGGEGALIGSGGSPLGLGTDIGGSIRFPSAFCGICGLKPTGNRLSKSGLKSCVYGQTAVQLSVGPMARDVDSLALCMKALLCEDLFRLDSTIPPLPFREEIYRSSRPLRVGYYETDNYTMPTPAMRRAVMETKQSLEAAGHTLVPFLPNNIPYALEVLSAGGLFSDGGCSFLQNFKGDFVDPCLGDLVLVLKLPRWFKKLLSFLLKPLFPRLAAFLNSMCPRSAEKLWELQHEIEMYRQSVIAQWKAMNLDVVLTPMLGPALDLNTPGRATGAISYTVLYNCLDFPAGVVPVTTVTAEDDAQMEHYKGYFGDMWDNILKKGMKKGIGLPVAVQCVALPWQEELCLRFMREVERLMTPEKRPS
Recorded inhibition at 1 µM by entry

| molecule | property_measured | data_value |
| --- | --- | --- |
| CC(=O)Nc1ccn(C(=O)N2CC3CN(Cc4ccc(Cl)c(C(C)(C)O)c4)CC3C2)n1 (stereo not shown) [Example 150] | inhibition at 1 µM | 0 to 25% |

## Task Tell me inhibition at 1 µM reported for CC(=O)Nc1ccn(C(=O)N2CCC3(CCCN3C(=O)c3ccc(Cl)c(C4CC4)c3)CC2)n1 [Example 20]
## Result > 75%

## Task Tell me inhibition at 1 µM reported for CS(=O)(=O)Nc1ccn(C(=O)N2CCC3(CCN(Cc4ccc(C(F)(F)F)cc4N4CCCC4)C3)CC2)n1 [Example 58]
## Result 0 to 25%

## Task Tell me inhibition at 1 µM reported for CC(=O)Nc1ccn(C(=O)N2CCN(Cc3cccc(C(F)(F)F)c3C)CC2)n1 [Example 129]
## Result 0 to 25%

## Task Tell me inhibition at 1 µM reported for CN(Cc1cc(Cl)ccc1C(F)(F)F)[C@H]1C[C@@H]2CN(C(=O)n3ccc(NS(C)(=O)=O)n3)C[C@@H]2C1 [Example 51]
## Result > 75%

## Task Tell me inhibition at 1 µM reported for CC(=O)Nc1ccn(C(=O)N2CCC3(CCN(C(=O)c4cc5ccc(C(F)(F)F)cc5s4)C3)CC2)n1 [Example 154]
## Result > 75%

## Task Tell me inhibition at 1 µM reported for CS(=O)(=O)Nc1ccn(C(=O)N2CCC(Oc3ccc(C(F)(F)F)cc3-c3nnco3)CC2)n1 [Example 96]
## Result 0 to 25%

* * *

molecular target: FAAH (Mus musculus (Mouse)); assay: In vitro competitive activity-based protein profiling, mouse proteomes (brain membrane fraction or cell lysates); format: biochemical; settings: mouse proteome, read-out: FAAH % inh. 1 μM (mouse)
Recorded inhibition at 1 µM by entry

Please review the entries below; each comes with its answer.
| compound | property_measured | data_value |
| --- | --- | --- |
| CC(=O)Nc1ccn(C(=O)N2CCC3(CCCN3Cc3cc4cc(Cl)ccc4[nH]3)CC2)n1 [Example 38] | inhibition at 1 µM | 25 to 50% |
| CC(=O)Nc1ccn(C(=O)N2C[C@H]3C[C@@H](N(C)Cc4ccccc4Cl)C[C@H]3C2)n1 [Example 37] | inhibition at 1 µM | > 75% |
| CS(=O)(=O)Nc1ccn(C(=O)N2CCC3(CCN(Cc4cc(Cl)cc(N5CCCC5)c4)C3)CC2)n1 [Example 68] | inhibition at 1 µM | 0 to 25% |
| CS(=O)(=O)Nc1ccn(C(=O)N2CC3CN(Cc4cc(Cl)ccc4C(F)(F)F)CC3C2)n1 (stereo not shown) [Example 45] | inhibition at 1 µM | 0 to 25% |
| C[C@@H]1CN(C(=O)n2ccc(NS(C)(=O)=O)n2)CCN1Cc1ccc(Cl)c(N2CCC(F)CC2)c1 [Example 138] | inhibition at 1 µM | 0 to 25% |
| CS(=O)(=O)Nc1ccn(C(=O)N2CCN(Cc3ccc(Cl)nc3N3CCCC3)CC2)n1 [Example 90] | inhibition at 1 µM | 0 to 25% |

// next item, inhibition at 1 µM requested
## Task Tell me inhibition at 1 µM reported for CS(=O)(=O)Nc1ccn(C(=O)N2CCN(Cc3ccc(Cl)c(OC4CCCC4)c3)CC2)n1 [Example 111]
## Result 0 to 25%

* * *

biological target: MAGL (Mus musculus (Mouse), UniProt O35678); experiment: In vitro competitive activity-based protein profiling, mouse proteomes (brain membrane fraction or cell lysates); type: biochemical; conditions: mouse proteome, read-out: MAGL % inh. 1 μM (mouse)
Sequence (O35678 whole entry): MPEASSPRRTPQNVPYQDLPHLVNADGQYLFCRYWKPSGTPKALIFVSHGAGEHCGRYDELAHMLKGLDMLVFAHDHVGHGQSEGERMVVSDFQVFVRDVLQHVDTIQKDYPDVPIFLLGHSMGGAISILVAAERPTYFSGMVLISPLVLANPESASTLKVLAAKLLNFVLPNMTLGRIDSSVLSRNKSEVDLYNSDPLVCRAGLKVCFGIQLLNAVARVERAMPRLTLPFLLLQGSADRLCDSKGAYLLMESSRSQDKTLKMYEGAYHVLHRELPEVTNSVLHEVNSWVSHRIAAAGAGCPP
Recorded inhibition at 1 µM by entry

## Task Tell me inhibition at 1 µM reported for CC(=O)Nc1ccn(C(=O)N2CCN(Cc3ccc(Cl)cc3OCC(=O)O)CC2)n1
## Result > 75%

* * *

target: UniProt O08914; assay: In vitro competitive activity-based protein profiling, mouse proteomes (brain membrane fraction or cell lysates); format: biochemical; conditions: mouse proteome, read-out: FAAH % inh. 1 μM (mouse)
property_measured: inhibition at 1 µM

Please review the entries below; each comes with its answer.
| compound | inhibition at 1 µM |
| --- | --- |
| CC(=O)Nc1ccn(C(=O)N2CC3CN(Cc4ccc(N5CCCC5)cc4C(F)(F)F)CC3C2)n1 (centres unmarked) | > 75% |
| CS(=O)(=O)Nc1ccn(C(=O)N2CCC3(CCN(Cc4ccc(Cl)cc4N4CCCC4)C3)CC2)n1 | 0 to 25% |
| CC(=O)Nc1ccn(C(=O)N2CC3CN(Cc4cccc(OC(F)(F)F)c4)CC3C2)n1 (centres unmarked) | > 75% |

## Task Tell me inhibition at 1 µM reported for CC(=O)Nc1ccn(C(=O)N2CC3CN(Cc4cc(Cl)cc(C(F)(F)F)c4)CC3C2)n1 (centres unmarked)
## Result > 75%

## Task Tell me inhibition at 1 µM reported for CC(=O)Nc1ccn(C(=O)N2CCN(Cc3cc(Cl)cc(Cl)c3)CC2)n1
## Result 0 to 25%

## Task Tell me inhibition at 1 µM reported for C[C@H](c1ccc(Cl)c(N2CCC(F)CC2)c1)N1CCN(C(=O)n2ccc(NS(C)(=O)=O)n2)CC1
## Result 0 to 25%

## Task Tell me inhibition at 1 µM reported for CS(=O)(=O)Nc1ccn(C(=O)N2C[C@H]3C[C@H](OCc4cccc(C(F)(F)F)c4)C[C@H]3C2)n1
## Result > 75%

## Task Tell me inhibition at 1 µM reported for CC(=O)Nc1ccn(C(=O)N2CCC(C)(N(C)Cc3ccc(C(N)=O)c(C(F)(F)F)c3)CC2)n1
## Result 0 to 25%

* * *

Recorded inhibition at 1 µM by entry
molecular target: FAAH (Mus musculus (Mouse), UniProt O08914); assay: In vitro competitive activity-based protein profiling, mouse proteomes (brain membrane fraction or cell lysates); type: biochemical; settings: mouse proteome, read-out: FAAH % inh. 1 μM (mouse)

Please review the entries below; each comes with its answer.
| molecule | test_system | inhibition at 1 µM |
| --- | --- | --- |
| CS(=O)(=O)Nc1ccn(C(=O)N2CCC3(CCN(Cc4cc(Cl)ccc4C(F)(F)F)C3)CC2)n1 | FAAH (Mus musculus (Mouse), UniProt O08914) | 0 to 25% |
| CC(=O)Nc1ccn(C(=O)N2CCN(Cc3cc(Cl)cc(Oc4ccc(Cl)cc4)c3)CC2)n1 | FAAH (Mus musculus (Mouse), UniProt O08914) | > 75% |
| C[C@H]1CN(Cc2ccc(Cl)c(N3CC4COCC4C3)c2)CCN1C(=O)n1ccc(NS(C)(=O)=O)n1 (stereo partly shown) | FAAH (Mus musculus (Mouse), UniProt O08914) | 0 to 25% |
| CS(=O)(=O)Nc1ccn(C(=O)N2CCC3(CCN(Cc4ccccc4Cl)C3)CC2)n1 | FAAH (Mus musculus (Mouse), UniProt O08914) | 0 to 25% |
| CC(=O)Nc1ccn(C(=O)N2CCN(Cc3ccc(Cl)cc3OC3(C(=O)O)CC3)CC2)n1 | FAAH (Mus musculus (Mouse), UniProt O08914) | 0 to 25% |

## Task Tell me inhibition at 1 µM reported for CN(Cc1ccc(C(F)(F)F)c(N2CCC(F)CC2)c1)C1(C)CCN(C(=O)n2ccc(NS(C)(=O)=O)n2)CC1
## Result 0 to 25%

## Task Tell me inhibition at 1 µM reported for CC(=O)Nc1ccn(C(=O)N2CC3CN(Cc4cc(Cl)cc(N5CCCC5)c4)CC3C2)n1 (stereo not shown)
## Result > 75%

* * *

target: MAGL (Homo sapiens (Human)); assay: In vitro competitive activity-based protein profiling, human proteomes (prefrontal cortex or PC3 cell membrane fractions); type: biochemical; details: 1 μM, human proteome; read-out: MAGL % inh. 1 μM (human)
Sequence (Q99685 whole entry): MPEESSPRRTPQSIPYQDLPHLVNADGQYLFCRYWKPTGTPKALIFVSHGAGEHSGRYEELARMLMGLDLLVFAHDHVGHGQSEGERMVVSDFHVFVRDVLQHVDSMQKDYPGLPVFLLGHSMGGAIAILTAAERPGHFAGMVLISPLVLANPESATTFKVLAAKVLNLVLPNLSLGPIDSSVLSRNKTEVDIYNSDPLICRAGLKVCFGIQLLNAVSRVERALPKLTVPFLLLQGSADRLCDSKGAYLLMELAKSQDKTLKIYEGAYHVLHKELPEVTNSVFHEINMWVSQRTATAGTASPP
property_measured: inhibition at 1 µM

## Task Tell me inhibition at 1 µM reported for CS(=O)(=O)Nc1ccn(C(=O)N2CCN(Cc3sc4ccccc4c3Cl)CC2)n1
## Result > 75%

## Task Tell me inhibition at 1 µM reported for C[C@H](c1ccc(Cl)c(N2CCC(F)CC2)c1)N1CCN(C(=O)n2ccc(NS(C)(=O)=O)n2)CC1
## Result > 75%

## Task Tell me inhibition at 1 µM reported for CS(=O)(=O)Nc1ccn(C(=O)N2CCN(Cc3ccc(C(F)(F)F)c(N4CC[C@@H](F)C4)c3)CC2)n1
## Result > 75%

## Task Tell me inhibition at 1 µM reported for CC(=O)Nc1ccn(C(=O)N2CC3CN(Cc4cc(Cl)cc(N5CCOCC5)c4)CC3C2)n1 (stereo not shown)
## Result > 75%
